Data origin: PubChem BioAssay (NCATS)

# ASSAY_REMARKS: Quantitative High-Throughput drug screen in 47 multiple myeloma cell lines against the NCATS MIPE library collection: RPMI8226_ATCC cell viability assay (AID 1919871); further: nearly all actives have a fitted effect of over 30% in size; further: potency means the concentration at half of the fitted maximal effect
# COND: RPMI8226 myeloma viability, CellTiter-Glo ATP luminescence, 48 h; series mostly up to 45.8 µM
Results filed as inconclusive are left out. Activity calls are given as the source filed them. The call rests on the fitted dose curve; in most records, active means well fitted cell-killing curve with a large enough effect; inconclusive means small, poorly fitted or top-dose-only effect, or effect the other way; inactive means no such curve, though single readings can be large or run the other way.
ATTRIBUTE_MEASURED: Potency

{"MOLECULE": "CC1(C)O[C@@H]2C[C@@H]3[C@H]4C[C@@H](F)C5=CC(=O)C=C[C@]5(C)[C@@]4(F)[C@@H](O)C[C@]3(C)[C@]2(C(=O)CO)O1", "RESULT": "0.0083 µM (active)"}
{"MOLECULE": "COc1c(OCCCN2CCOCC2)ccc2c3n(c(=NC(=O)c4cnc(N)nc4)nc12)CCN3", "RESULT": "0.129 µM (active)"}
{"MOLECULE": "CN(C)CC=CC(=O)Nc1cc2c(Nc3ccc(F)c(Cl)c3)ncnc2cc1O[C@H]1CCOC1", "RESULT": "16.6 µM (active)"}
{"MOLECULE": "Cc1ccc2nc(NC(=O)CSc3nc4c(c(=O)n3-c3ccccc3)SCC4)sc2c1", "RESULT": "16.6 µM (active)"}
{"MOLECULE": "COc1cc(-c2nn(C3CCC(N4CCN(C(C)=O)CC4)CC3)c3ncnc(N)c23)ccc1NC(=O)c1cc2ccccc2n1C (configuration not stated)", "RESULT": "18.7 µM (active)"}
{"MOLECULE": "CN[C@H]1CCc2cc(OC)c(OC)c(OC)c2-c2ccc(OC)c(=O)cc21", "RESULT": "0.0083 µM (active)"}
{"MOLECULE": "O=C(C=Cc1cccc(S(=O)(=O)Nc2ccccc2)c1)NO", "RESULT": "3.4 µM (active)"}
{"MOLECULE": "NC(=O)c1c(OCc2c(F)cc(Br)cc2F)nsc1NC(=O)NCCCCN1CCCC1", "RESULT": "23.5 µM (active)"}
{"MOLECULE": "C1Cc2[nH]nc(-c3nn[nH]n3)c2C1", "RESULT": "inactive"}
{"MOLECULE": "O=C(Nc1nc2cccc(-c3ccc(CN4CCS(=O)(=O)CC4)cc3)n2n1)C1CC1", "RESULT": "18.7 µM (active)"}
{"MOLECULE": "O=C(NC1CCNCC1)c1[nH]ncc1NC(=O)c1c(Cl)cccc1Cl", "RESULT": "1.05 µM (active)"}
{"MOLECULE": "CC[C@H]1CN2CCc3cc(OC)c(OC)cc3[C@H]2C[C@@H]1C[C@@H]1NCCc2cc(OC)c(OC)cc21", "RESULT": "0.148 µM (active)"}
{"MOLECULE": "CCCNC(=O)Nc1ccc(Oc2ncnc3cc(OC)c(OC)cc23)cc1Cl", "RESULT": "0.935 µM (active)"}
{"MOLECULE": "CC1(C)OC2=C(C(=O)c3ccccc3C2=O)[C@H](NCc2ccccc2)[C@H]1O", "RESULT": "8.33 µM (active)"}
{"MOLECULE": "Cc1ccc(NC(=O)C2(c3ccc4c(c3)OC(F)(F)O4)CC2)nc1-c1cccc(C(=O)O)c1", "RESULT": "0.0935 µM (active)"}
{"MOLECULE": "CC[C@@]1(O)C(=O)OCc2c1cc1n(c2=O)Cc2cc3cc(O)ccc3nc2-1", "RESULT": "8.33 µM (active)"}
{"MOLECULE": "CCS(=O)(=O)c1cccc(-c2cc(C(=O)NC3CCN(C)CC3)c(C)c3[nH]c4ncc(C)cc4c23)c1", "RESULT": "5.9 µM (active)"}
{"MOLECULE": "Cn1c(=O)n(-c2ccc(C(C)(C)C#N)cc2)c2c3cc(-c4cnc5ccccc5c4)ccc3ncc21", "RESULT": "0.0105 µM (active)"}
{"MOLECULE": "COc1cc2ncnc(Nc3ccc(F)c(Cl)c3)c2cc1NC(=O)C=CCN1CCCCC1", "RESULT": "18.7 µM (active)"}
{"MOLECULE": "COc1ccc(OC)c(-c2nnc3ccc(-c4ccc(OC)c(O[C@@H]5CCOC5)c4)nn23)c1", "RESULT": "18.7 µM (active)"}
{"MOLECULE": "C=CCn1c(=O)c2cnc(Nc3ccc(N4CCN(C)CC4)cc3)nc2n1-c1cccc(C(C)(C)O)n1", "RESULT": "2.35 µM (active)"}
{"MOLECULE": "CC[C@@H]1C(=O)N(C)c2cnc(Nc3ccc(C(=O)NC4CCC(N5CCN(CC6CC6)CC5)CC4)cc3OC)nc2N1C(C)C (some centres not stated)", "RESULT": "8.33 µM (active)"}
{"MOLECULE": "O=C(c1cncc(Br)c1)N1CCC(N2CCCC2)CC1", "RESULT": "inactive"}
{"MOLECULE": "Cc1cc(Nc2cc(CN3CCOCC3)c3nc(C)c(Cc4ccc(Cl)cc4F)n3n2)n[nH]1", "RESULT": "2.35 µM (active)"}
{"MOLECULE": "Cc1ccc(-c2ncn(-c3ccc(Nc4nccc(-c5cccc(N6CCOCC6)c5)n4)cc3)n2)cn1", "RESULT": "0.132 µM (active)"}
{"MOLECULE": "C=CC(=O)Nc1cc2c(Nc3ccc(F)c(Cl)c3)ncnc2cc1C#CC(C)(C)N1CCN(C)CC1", "RESULT": "6.62 µM (active)"}
{"MOLECULE": "Cc1cc(C(=O)N2CCN(c3cccc(Cl)c3)CC2)n(-c2ccccc2)n1", "RESULT": "5.9 µM (active)"}
{"MOLECULE": "COc1cc(C)c(Sc2cnc(NC(=O)c3ccc(CNC(C)C(C)C)cc3)s2)cc1C(=O)N1CCN(C(C)=O)CC1 (configuration not stated)", "RESULT": "14.8 µM (active)"}
{"MOLECULE": "C=CC(=O)Nc1cccc(Oc2nc(Nc3ccc(N4CCN(C)CC4)cc3)ncc2Cl)c1", "RESULT": "14.8 µM (active)"}
{"MOLECULE": "CC(=O)c1c(C)c2cnc(Nc3ccc(N4CCNCC4)cn3)nc2n(C2CCCC2)c1=O", "RESULT": "2.09 µM (active)"}
{"MOLECULE": "Nc1ccn([C@@H]2CS[C@H](CO)O2)c(=O)n1", "RESULT": "inactive"}
{"MOLECULE": "Cc1cn2cc(C(=O)N(C)CCO)cc(N[C@@H]3CCOc4cccc(C)c43)c2n1", "RESULT": "inactive"}
{"MOLECULE": "CC(C)c1nn(-c2c(Cl)cccc2Cl)c2nc(Cc3ccc(OCCO)cc3)[nH]c(=O)c12", "RESULT": "0.118 µM (active)"}
{"MOLECULE": "COc1cc2ncn(-c3cc(OCc4ccccc4C(F)(F)F)c(C(N)=O)s3)c2cc1OC", "RESULT": "5.26 µM (active)"}
{"MOLECULE": "COC(=O)C1=C(C)NC(C)=C(C(=O)OCCN2CCN(C(c3ccccc3)c3ccccc3)CC2)C1c1cccc([N+](=O)[O-])c1 (configuration not stated)", "RESULT": "inactive"}
{"MOLECULE": "COCCOc1ccc2c(c1)ncn2-c1ccc2cccc(N3CCC(N)CC3)c2n1", "RESULT": "26.4 µM (active)"}
{"MOLECULE": "O=C(Cc1ccc(-c2ccc(OCCN3CCOCC3)cc2)cn1)NCc1ccccc1", "RESULT": "0.148 µM (active)"}
